Test: qHTS profiling of the MIPE4 collection as inhibitors of Plasmodium falciparum (DD2) proliferation (Rep 2) (AID 743346)
Conditions: P. falciparum Dd2 in erythrocytes, SYBR Green DNA, 72 h; at 28.5 µM
Description: Plasmodium falciparum is a virulent malarial parasite that kills 1-2 million people worldwide each year. […] Because mature erythrocytes lack DNA, only Plasmodium-derived DNA is detected. The SYBR Green viability assay was adapted from a method described previously (Plouffe et al., 2008). […] The following morning, fluorescence intensity at 485(14) nm excitation and 535(25) nm emission wavelengths was measured on an EnVision (Perkin Elmer) plate reader. […]
value-type: parasite growth, % of control (lower = inhibition) (%)
State just the number; it will be interpreted in %.

Below, each entry is followed by its recorded parasite growth, % of control (lower = inhibition) result.
{"columns": ["record-smiles", "endpoint-unit", "measured-result"],
 "data": [
  ["CC(C)(C)n1nc(Cc2cccc3ccccc23)c2c(N)ncnc21", "%", 52.6],
  ["O=C(Nc1ccc(-c2ccccc2)cc1)[C@H](Cc1ccc(O[S+](=O)([O-])c2cccc3cnccc23)cc1)N[S+](=O)([O-])c1cccc2cnccc12", "%", 17.5],
  ["O=C([C@H](Cc1ccc(O[S+](=O)([O-])c2cccc3cnccc23)cc1)N[S+](=O)([O-])c1cccc2cnccc12)N1CCN(Cc2ccccc2)CC1", "%", 19.3]
]}

Suppose we examine the compound CC(C)(C)OC(=O)N[C@@H](Cc1ccc(O[S+](=O)([O-])c2cccc3cnccc23)cc1)C(=O)N1CCN(Cc2ccccc2)CC1 ; what parasite growth, % of control (lower = inhibition) value has been reported?
22.5

Suppose we examine the compound CC(C)(C)OC(=O)N[C@@H](Cc1ccc(OS(=O)(=O)c2cccc3cnccc23)cc1)C(=O)N1CCCN(C(=O)OC(C)(C)C)CC1 ; what parasite growth, % of control (lower = inhibition) value has been reported?
34.3

* * *

Target: Ubiquitin carboxyl-terminal hydrolase 2 (Homo sapiens)
Assay: qHTS for Inhibitors of Ubiquitin-specific Protease USP2a Using CHOP2 as the Reporter: K484 Substrate (AID 652173);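 also: cleavage of internally quenched K48 di-ubiquitin substrate measured as rising fluorescence over time; nearly all actives have a fitted effect of over 70% in size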
Settings: USP2 cleavage of DiUb K48 IQF substrate, fluorescence; series mostly up to 57.5 µM
Inconclusive results are not listed. The source made the active and inactive calls. The call rests on the fitted dose curve; in most records, active means well fitted inhibition curve with a large enough effect; inconclusive means small, poorly fitted or top-dose-only effect; inactive means flat fitted curve, though single readings scatter.
Hi! Could you answer with just one of these? active, inactive

Reference set, count: 5
{"columns": ["record-smiles", "category-label"],
 "data": [
  ["O=C(Nc1ccc([S+](=O)([O-])Nc2nccs2)cc1)c1ccn[nH]1", "inactive"],
  ["Cc1ccc(S(=O)(=O)Nc2ccccc2C(=O)Nc2nc(-c3ccccc3)c(Br)s2)cc1", "active"],
  ["O=S(=O)(Nc1nccs1)c1ccc(Nc2nc(-c3ccccc3)cs2)cc1", "inactive"],
  ["O=C(Nc1ccc([S+](=O)([O-])Nc2nccs2)cc1)c1ccccn1", "inactive"],
  ["CC1(C)CC(C(=O)Nc2ccc([S+](=O)([O-])Nc3nccs3)cc2)C1", "inactive"]
]}

Answer briefly: the call reported for Cc1ccc(-c2cc(C(=O)Nc3ccc(C(=O)O)cc3)c3ccccc3n2)cc1C in this assay.
active

Answer briefly: the call reported for O=c1[nH]c(CN2CCOCC2)nc2sc3c(c12)CCCC3 in this assay.
inactive

Answer briefly: the call reported for Cc1ccc(-c2csc(NC(=O)c3ccccc3NS(=O)(=O)c3ccc(C)cc3)n2)cc1 in this assay.
active

Answer briefly: the call reported for CCCCC(=O)N1CCC(C(=O)Nc2ccc([S+](=O)([O-])Nc3nccs3)cc2)CC1 in this assay.
inactive

Answer briefly: the call reported for COc1ccccc1NC(=O)c1cc(-c2ccc(C)c(C)c2)nc2ccccc12 in this assay.
active

* * *

// reported max response per item
Test: qHTS Assay for Lipid Storage Modulators (AID 1519)
Conditions: Drosophila S3 cells, BODIPY lipid droplet/cell ratio, laser cytometry; measured here: cell count channel max response; cells loaded with oleic acid
Inconclusive results are not listed.
State just the number; it will be interpreted in %.

{"columns": ["compound", "measured-result"],
 "data": [
  ["COc1ccc2[nH]cc(CCNc3ncncc3-c3ccc(N(C)C)cc3)c2c1", 5.01],
  ["COc1ccccc1CNc1ncncc1-c1cccc(C#N)c1", -8.3],
  ["c1csc(CNc2ncnc3ccc(-c4ccoc4)cc23)c1", 15.9],
  ["COc1cccc(Cn2c(=O)c(C)nc3cnc(N4CCN(C)CC4)nc32)c1", 13.5],
  ["C=C1CCC2[C@](C)(CO)C(O)CC[C@]2(C)C1C/C=C1/C(=O)OCC1O (stereo partly specified)", 11],
  ["O=C(c1ccncc1)N1CCC[C@@]2(CCN(c3ccccn3)C2)C1", 14.4],
  ["Cn1c(=O)c(-c2cccs2)nc2cnc(N3CCNCC3)nc21", 15.4],
  ["CN1CCN(c2ncncc2-c2ccccc2C(F)(F)F)CC1", 25.9],
  ["OC[C@H]1O[C@@H](n2cnc3c(NCCc4ccccc4)ncnc32)[C@H](O)[C@H]1O", -25.2],
  ["FC(F)(F)c1ccccc1-c1nc(N2CCNCC2)c2ccccc2n1", 13.7]
]}

Suppose we examine the compound O=C(Nc1ccccc1)N1CCC2(CC1)CCN(C(=O)c1csnn1)CC2 ; what max response value has been reported?
16.6

Suppose we examine the compound CN(C)Cc1ccccc1-c1nc(N2CCOCC2)c2ccccc2n1 ; what max response value has been reported?
11.7

Suppose we examine the compound Cn1cccc1C(=O)N1CCC2(CC1)CCN(c1ccccc1)CC2 ; what max response value has been reported?
9.38

Suppose we examine the compound CCNc1ncc2nc(-c3ccc(F)cc3)c(=O)n(CCOC)c2n1 ; what max response value has been reported?
22.2

Suppose we examine the compound CN1CCN(c2ncc3nc(-c4cccc(C#N)c4)c(=O)n(Cc4ccc(F)cc4)c3n2)CC1 ; what max response value has been reported?
1.09

Suppose we examine the compound COc1ccc(Oc2ncc3nc(C)c(=O)n(Cc4cccc(OC)c4)c3n2)cc1 ; what max response value has been reported?
6.56

* * *

Molecular target: Ferritin light chain (Equus caballus)
Assay: qHTS Validation Assay for Identification of Novel General Anesthetics (AID 2323); also: % is scaled to controls: 0 for no effect and ±100 for the full control effect
Settings: horse apoferritin, anesthetic-site fluorescent probe displacement; series mostly up to 76.9 µM
Inconclusive results are not listed. Active and inactive are the calls of the source. Calls come from the whole dose curve; as a rule, active = well fitted curve in the direction sought with a large enough effect; inconclusive = small, poorly fitted or top-dose-only effect, or another doubt; inactive = no such curve, though single readings can be large or run the other way.

{"columns": ["compound", "outcome"],
 "data": [
  ["C[C@H](Cc1ccccc1)Nc1ncnc2c1ncn2[C@@H]1O[C@H](CO)[C@H](O)[C@H]1O", "inactive"],
  ["NC(=O)C1=CN(C2OC(COP(=O)(O)OP(=O)(O)OC[C@H]3O[C@@H](n4cnc5c(N)ncnc54)[C@H](OP(=O)(O)O)[C@H]3O)C(O)C2O)C=CC1 (stereo partly drawn)", "inactive"],
  ["CC(=O)O[C@H]1C[C@@H]2CCC3C(CC[C@@]4(C)[C@H]3C[C@H]([N+]3(C)CCCCC3)[C@@H]4OC(C)=O)[C@@]2(C)C[C@@H]1[N+]1(C)CCCCC1 (stereo partly drawn)", "inactive"]
]}

* * *

// reported activity, negative = inhibition per item
Test: Stat Signaling Pathway (AID 446);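 also: ME-180 cervical cancer cells given 40 pM IL-6 alongside compound; SIE-controlled beta-lactamase reporter measured as 460/530 nm FRET emission ratio; % is scaled to controls: 0 for no effect and ±100 for the full control effect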
Settings: ME-180 (cervical carcinoma) SIE beta-lactamase reporter, IL-6 stimulated, 5 h; at 7.69 µM (top of the series) unless noted
Records with an inconclusive call do not appear.
State just the number; it will be interpreted in %.

Below, each entry is followed by its recorded activity, negative = inhibition result.
{"columns": ["record-smiles", "activity, negative = inhibition / %"],
 "data": [
  ["N#CCCn1c(=O)c(-c2cc(F)cc(F)c2)nc2cnc(OCc3ccccc3)nc21", 3.6],
  ["CC(=O)N1CCC2(CCN(Cc3cc(C(F)(F)F)cc(C(F)(F)F)c3)CC2)CC1", 8.31],
  ["COCCNc1ncnc2ccc(-c3ccoc3)cc12", -12.8]
]}

Suppose we examine the molecule O=c1c(CCc2ccccc2)nc2cncnc2n1Cc1ccc(F)cc1 ; what activity, negative = inhibition value has been reported?
-6.1

Suppose we examine the molecule COc1cccc(Nc2ncc3nc(-c4ccccc4)c(=O)n(C[C@H]4CCCO4)c3n2)c1 ; what activity, negative = inhibition value has been reported?
4.51

Suppose we examine the molecule CS(=O)(=O)N1CCC[C@@]2(CCN(Cc3ccccc3)C2)C1 ; what activity, negative = inhibition value has been reported?
23.6

Suppose we examine the molecule O=C(c1cc(C(F)(F)F)cc(C(F)(F)F)c1)N1CCC2(CC1)CN(c1ccccc1)C2 ; what activity, negative = inhibition value has been reported?
2.58

Suppose we examine the molecule COCC(=O)N1CCC2(CC1)CN(C(=O)Nc1ccc(OC)cc1)C2 ; what activity, negative = inhibition value has been reported?
2.17

Suppose we examine the molecule COCCn1c(=O)c(-c2ccc(F)cc2)nc2cnc(N3CCOCC3)nc21 ; what activity, negative = inhibition value has been reported?
-13.8

Suppose we examine the molecule CN(C)c1ncc2ncc(=O)n(CCc3ccccc3)c2n1 ; what activity, negative = inhibition value has been reported?
-10.8

// provenance: PubChem BioAssay (NCATS)
